Origin of measurements: PubChem BioAssay

System: Human papillomavirus type 1a E7 protein (residues 1-88)
experiment notes: HPV1a E7 small-molecule binders, primary screen, biochemical, small-molecule microarray, residues 1-88, 635 nm (AID 1129)
condition summary: small-molecule microarray binding, fluorescence 635 nm; higher = more signal
Recorded composite z-score values for a group of compounds are listed next.
Returns: the value as a bare number; no unit string appended.

In the examples that follow, each entry is paired with its recorded composite z-score.
| chemical string | observed value |
| --- | --- |
| CCOC(=O)C1=CC[C@@H](c2ccccc2Cl)N(S(=O)(=O)c2ccc(C)cc2)[C@H]1c1cccc(OC)c1 | 1.05 |
| Cc1c(NC(=O)/C(C#N)=C/c2ccc(Cl)cc2)c(=O)n(-c2ccccc2)n1C | 0.8 |
| COC(=O)[C@@]1(Cc2ccc(F)cc2)[C@H]2c3cc(C(=O)N(C)C)n(CCO)c3C[C@H]2CN1C(=O)c1ccccc1 | 0.889 |

As a next step, examine the compound that follows.
-- ask I'd like to know its composite z-score. The compound in question is CCc1cccc(NC(=O)O[C@H]2[C@H](OC(=O)Nc3ccc4c(c3)OCO4)[C@H](OC(=O)Nc3ccc4c(c3)OCO4)[C@@H](OC)O[C@@H]2CO)c1
-- reply 1.24

---

Tested on: Human papillomavirus type 1a protein E7 (residues 44-93)
experiment notes: HPV1a E7 fragment binders on microarrays, primary screen, biochemical, small-molecule microarray, residues 44-93, 635 nm fluorescence (AID 1108);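 note: E7 fragment applied at 1 µg/mL in TBST for 1 h at 4 C; score combines spot fluorescence with its signal to noise ratio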
condition summary: small-molecule microarray binding, fluorescence 635 nm; higher = more signal
Reported composite z-score values follow for various compounds
Please respond with just the number, no unit label.

Recorded composite z-score, per entry:
| compound | composite z-score |
| --- | --- |
| CCCCC(=C=CC[C@@H](O)c1ccc(OCCO)cc1)C[C@@H](O)c1ccccn1 | -0.0715 |
| COCCOC(=O)N1C(=O)[C@@]2(c3cc(C#CC4=CCCCC4)ccc31)[C@H](c1ccc(OCCO)cc1)N1[C@H](c3ccccc3)[C@H](c3ccccc3)OC(=O)[C@H]1[C@@H]2C(=O)N1CCCCCCC1 | 0.67 |
| C=CCNC(=O)[C@@H]1[C@H]2C(=O)O[C@H](c3ccccc3)[C@H](c3ccccc3)N2[C@H](c2ccc(O)cc2)[C@@]12C(=O)Nc1ccc(C#CC3(O)CCCCCC3)cc12 | 0.754 |
| CCC[C@@H]1C=C(C(=O)OCC)[C@H](c2ccccc2)N1S(=O)(=O)c1ccc(C)cc1 | 1.04 |
| COCCOC(=O)N1C(=O)[C@@]2(c3cc(C#CC4(O)CCCCCC4)ccc31)[C@H](C(=O)NC[C@H](O)c1ccccc1)[C@H]1C(=O)O[C@H](c3ccccc3)[C@H](c3ccccc3)N1[C@@H]2c1ccc(O)cc1 | -0.132 |
| O=C1C2C=CC(C(O)C(c3ccccc3)c3ccccc3)N(Nc3ccccc3)C2C(=O)N1c1ccccc1 (centres undefined) | 1.44 |
| CC(C)(C)OC(=O)CC[C@]1(C(=O)N2CCOCC2)N=C(c2ccc(OCCCO)cc2)O[C@H]1c1ccccc1CN=[N+]=[N-] | 1.36 |
| COCCOC(=O)N1C(=O)[C@@]2(c3ccccc31)[C@H](C(N)=O)[C@H]1C(=O)O[C@H](c3ccccc3)[C@H](c3ccccc3)N1[C@@H]2c1ccc(OCCO)cc1 | 1.45 |

-- ask What does the data say about its composite z-score? Entry: COCCn1c(C(=O)N2CCCC2)cc2c1C[C@H]1CN(C(=O)c3ccccc3)[C@@](Cc3ccccc3)(C(=O)OC)[C@@H]21
-- reply 1.51

-- ask Now the same for COc1ccccc1CN1C(=O)c2ccccc2[C@](Cc2ccccc2I)(C(=O)NCCCN(C)C)[C@@H]1c1ccc(CO)cc1
-- reply 1.35

-- ask One more compound: CN(C)C(=O)[C@]1(Cc2ccccc2CN=[N+]=[N-])N=C(c2ccc(OCCCO)cc2)O[C@@H]1c1ccccc1N=[N+]=[N-]
-- reply 1.44

-- ask Please do the same for C=CC[C@]1(C(=O)NCc2ccccc2)COC(c2ccc(OCCCO)cc2)=N1 as well.
-- reply -0.298

-- ask What do you get for CC(C)C[C@H]1NC(=O)[C@@]23C(=O)N[C@@H](Cc4ccccc4)C2[C@H](C)[C@@]2(C)O[C@H]2C3/C=C/C/C=C\CNC(=O)[C@@H]2CCCN2C1=O (some centres undefined) ?
-- reply 0.612

-- ask Entry to check: O=C1OCCC/C=C\[C@H]2OC34C=CCN(Cc5ccccc5)C(=O)[C@H]3N(CCCCCO)C(=O)[C@@H]4C12 (some centres undefined)
-- reply -0.486
